Source listed as paper PMC7435646.

# Tested on: HBsAg
# measurement.notes: Inhibition of HBsAg secretion (ELISA) in HepG2.2.15 cells
# Type: cell-based, hepatitis B virus (HBV)
# condition.label: Hepatitis B virus, HepG2.2.15, 216 h, read-out: HBsAg IC50
pIC50: −log10 of the molar value.

# compound, pIC50
measured = [
    ("C[C@H](CCC(=O)OCc1ccco1)[C@H]1CC[C@H]2[C@@H]3C(=O)CC4C/C(=N/OCc5ccccc5)CC[C@]4(C)[C@H]3CC(=O)[C@]12C (some centres unmarked) [Compound 2c-2]", 3.33),
    ("C[C@H](CCC(=O)OCc1ccccc1)[C@H]1CC[C@H]2[C@@H]3C(=O)CC4C/C(=N/O)CC[C@]4(C)[C@H]3CC(=O)[C@]12C (some centres unmarked) [Compound 2a-1]", 3.20),
    ("C=C1[C@H](CO)[C@@H](O)C[C@@H]1n1cnc2c(=O)[nH]c(N)nc21 [ETV, Entecavir, reference compound]", 3.79),
    ("C[C@H](CCC(=O)OCc1ccco1)[C@H]1CC[C@H]2[C@@H]3C(=O)CC4C/C(=N/O)CC[C@]4(C)[C@H]3CC(=O)[C@]12C (some centres unmarked) [Compound 2c-1]", 3.52),
    ("CO/N=C1\\CC[C@@]2(C)C(CC(=O)[C@H]3[C@@H]4CC[C@H]([C@H](C)CCC(=O)OCc5ccco5)[C@@]4(C)C(=O)C[C@@H]32)C1 (some centres unmarked) [Compound 2c-3]", 3.74),
]
